- MEASURED_TARGET: Homo sapiens TRAAK (Homo sapiens)
- Construct: The transcribed messages encode H. sapiens TRAAK amino acids 1–393; expressed in transfected cells; host or cells: Xenopus laevis oocytes, cRNA injection
- ASSAY_NOTES: Excised inside-out patch recording of TRAAK from Xenopus oocytes
- Format: biochemical
MEASUREMENT_LABEL: pIC50
Please keep in mind that pIC50 is minus log10 of the molar concentration; only the number is needed.

# value of pIC50, Homo sapiens TRAAK (Homo sapiens), item CCCCCc1cc(O)c2c(c1)OC(C)(C)c1ccc(C)cc1-2 [CBN, Cannabinol] = 6.97

---

- MEASURED_TARGET: TRAAKG158D (Homo sapiens, UniProt Q9NYG8, G132D)
- Construct: The transcribed messages encode H. sapiens TRAAK amino acids 1–393
- ASSAY_NOTES: Excised patch recording of TRAAK mutant G158D
- Description: For patch clamp recording from Xenopus oocytes, genes encoding full-length Homo sapiens TRAAK (UniProt Q9NYG8–2), TREK-1 (UniProt O95069), and TREK-2 (UniProt P57789) were codon optimized for eukaryotic expression, synthesized (Genewiz), and cloned into a modified pGEMHE vector using Xho1 and EcoR1 restriction sites. […] Currents were recorded at 25 °C from inside-out patches excised from oocytes 1 to 5 d after RNA injection. […]
MEASUREMENT_LABEL: pIC50
Please keep in mind that pIC50 is minus log10 of the molar concentration; only the number is needed.

# value of pIC50, TRAAKG158D (Homo sapiens, UniProt Q9NYG8, G132D), item C=C(C)[C@@H]1CCC(C)=C[C@H]1c1c(O)cc(CCCCC)cc1O = 5.99

---

- MEASURED_TARGET: TRAAKA270P (Homo sapiens, UniProt Q9NYG8, A244P)
- Construct: The transcribed messages encode H. sapiens TRAAK amino acids 1–393; expressed in transfected cells; host or cells: Xenopus laevis oocytes, cRNA injection
- ASSAY_NOTES: Excised patch recording of TRAAK mutant A270P
- Type: biochemical
MEASUREMENT_LABEL: IC50 (nM)
Respond with the bare value in nM.

Just so you know, measured IC50 for C=C(C)[C@@H]1CCC(C)=C[C@H]1c1c(O)cc(CCCCC)cc1O came out at 1120

---

- MEASURED_TARGET: Homo sapiens TRAAK (Homo sapiens, UniProt Q9NYG8)
- Construct: The transcribed messages encode H. sapiens TRAAK amino acids 1–393; expressed in transfected cells; host or cells: Xenopus laevis oocytes, cRNA injection
- Sequence (Q9NYG8 1-393): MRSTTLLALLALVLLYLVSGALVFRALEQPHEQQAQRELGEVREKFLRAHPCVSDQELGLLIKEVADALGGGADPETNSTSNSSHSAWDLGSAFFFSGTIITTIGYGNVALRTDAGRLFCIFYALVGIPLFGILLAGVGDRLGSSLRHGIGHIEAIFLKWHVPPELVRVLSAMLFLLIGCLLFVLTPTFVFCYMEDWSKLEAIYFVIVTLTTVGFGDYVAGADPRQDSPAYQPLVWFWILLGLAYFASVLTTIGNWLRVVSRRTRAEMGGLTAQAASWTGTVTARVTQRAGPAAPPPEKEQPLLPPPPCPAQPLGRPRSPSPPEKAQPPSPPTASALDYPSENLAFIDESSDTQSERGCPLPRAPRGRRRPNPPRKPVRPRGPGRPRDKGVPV
- ASSAY_NOTES: Excised inside-out patch recording of TRAAK from Xenopus oocytes
- Type: biochemical
- RUN_CONDITIONS: wild-type TRAAK, excised patch, current at 0 mV; read-out: IC50
MEASUREMENT_LABEL: IC50 (µM)
Respond with the bare value in µM.

Just so you know, measured IC50 for C=C(C)[C@@H]1CCC(C)=C[C@H]1c1c(O)cc(CCC)cc1O came out at 5.58
